systemUnderTest: KRAS G13C (Homo sapiens (Human), UniProt P01116+P62937, G13C)
Sequence (P01116 other isoform, or with tags, fused parts or gaps G13C): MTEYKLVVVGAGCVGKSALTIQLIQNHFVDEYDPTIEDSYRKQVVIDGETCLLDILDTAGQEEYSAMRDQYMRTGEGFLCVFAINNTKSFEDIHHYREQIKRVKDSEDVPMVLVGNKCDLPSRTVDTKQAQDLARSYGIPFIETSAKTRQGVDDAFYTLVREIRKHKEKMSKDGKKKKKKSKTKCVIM
Sequence (P62937 whole entry): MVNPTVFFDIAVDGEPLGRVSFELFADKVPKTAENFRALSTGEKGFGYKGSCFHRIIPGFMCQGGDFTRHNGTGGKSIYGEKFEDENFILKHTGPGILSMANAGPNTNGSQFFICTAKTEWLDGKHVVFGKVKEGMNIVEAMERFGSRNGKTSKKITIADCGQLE
procedureDetails: Ras-Raf disruption/FRET/MOA assay (BRAF RBD, Cyclophilin A)
Format: biochemical
runConditions: read-out: KRAS G13C FRET IC50
pIC50: −log10 of the molar value.
outcomeMeasure: pIC50

molecule: CCn1c(-c2cccnc2[C@H](C)OC)c2c3cc(ccc31)-c1csc(n1)C[C@H](NC(=O)[C@H](C(C)C)N(C)C(=O)N1CC[C@H]1CN)C(=O)N1CCC[C@H](N1)C(=O)OCC(C)(C)C2
systemUnderTest: KRAS G13C (Homo sapiens (Human), UniProt P01116+P62937, G13C)
observedResult: 6.00 to 7.00

molecule: CCN(C)C(=O)N(C)[C@H](C(=O)N[C@H]1Cc2nc(cs2)-c2ccc3c(c2)c(c(-c2cccnc2[C@H](C)OC)n3CC)CC(C)(C)COC(=O)[C@@H]2CCCN(N2)C1=O)C(C)C
systemUnderTest: KRAS G13C (Homo sapiens (Human), UniProt P01116+P62937, G13C)
observedResult: 6.00 to 7.00

molecule: CCn1c(-c2cccnc2[C@H](C)OC)c2c3cc(ccc31)-c1cc(O)cc(c1)C[C@H](NC(=O)[C@H](C(C)C)N(C)C(=O)C1CC3(CCOCC3)CO1)C(=O)N1CCC[C@H](N1)C(=O)OCC(C)(C)C2 (stereo partly shown)
systemUnderTest: KRAS G13C (Homo sapiens (Human), UniProt P01116+P62937, G13C)
observedResult: 7.00 to 8.00

Note to self: pIC50 recorded for CCn1c(-c2cccnc2[C@H](C)OC)c2c3cc(ccc31)-c1csc(n1)C[C@H](NC(=O)[C@H](C(C)C)N(C)C(=O)[C@@H]1OCC[C@@H]1c1ccccc1)C(=O)N1CCC[C@H](N1)C(=O)OCC(C)(C)C2 was 6.00 to 7.00
